# MEASUREMENT_TARGET: T1, recombinant protein CDH6 (UniProt P55285 54-615)
# T1 construct: also called CDH6 recombinant protein; CDH6 antigen
# T1 sequence (looked up): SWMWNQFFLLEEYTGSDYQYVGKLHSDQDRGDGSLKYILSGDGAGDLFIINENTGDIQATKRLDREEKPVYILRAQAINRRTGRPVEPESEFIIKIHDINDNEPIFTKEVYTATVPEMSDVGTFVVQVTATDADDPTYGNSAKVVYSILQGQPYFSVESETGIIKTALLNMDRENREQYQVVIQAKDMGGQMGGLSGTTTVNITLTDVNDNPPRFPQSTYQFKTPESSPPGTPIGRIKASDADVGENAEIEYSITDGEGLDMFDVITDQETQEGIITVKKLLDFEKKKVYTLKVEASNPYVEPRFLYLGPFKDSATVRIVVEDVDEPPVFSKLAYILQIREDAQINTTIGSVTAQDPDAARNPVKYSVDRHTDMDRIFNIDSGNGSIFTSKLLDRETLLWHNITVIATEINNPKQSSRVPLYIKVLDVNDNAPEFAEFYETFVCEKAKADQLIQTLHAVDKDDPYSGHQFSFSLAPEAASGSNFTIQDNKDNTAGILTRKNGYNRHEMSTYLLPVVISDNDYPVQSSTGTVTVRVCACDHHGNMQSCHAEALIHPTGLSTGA
# EXPERIMENT_SUMMARY: ELISA, CDH6 coated; antibody 0.39 ng/mL
ASSAY_READOUT: OD450 (OD450)
The response must be a number in OD450 with no trailing unit.

>>> measurement("CL069463 antibody (antibody, V domains shown, Mouse monoclonal antibody from hybridoma, purified from ascites with Protein A/G; also called #13; No. 13) VH: EVQLVESGGGLVQPKGSLKLSCAASGFTFNTYALTWVRQAPGKGLEWVGRIKSKNKDYETYYADSVKDRFTISRNDSQSLLYLQMNNLKTEDTAIYYCVRQNWNYFDYWGQGTTLTVSS VL: DIQMTQSPASLAASVGETVTITCRASENIYYSLAWYQQRQGKSPQLLIYNANSLKDGVPSRFSGSGSGTQYSMKINSMQPEDTATYFCQQAYDVPPTFGGGTKLEIK")
0.139
>>> measurement("CL069066 antibody (antibody, V domains shown, Mouse monoclonal antibody from hybridoma, purified from ascites with Protein A/G; also called #4; No. 4) VH: EVKLLESGGGLVQPGGSLKLSCAASGFDFSRYWMTWVRQAPGKGLEWIGEINPDSSTINYTPSLKDKFIISRDNAKNTLYLQMNKVTSEDTALYYCTRRPHYYGYFDSWGQGTTLTVSS VL: DIVLTQSPASLAVSLGQRATISCRASESVEYYGTTLMQWYQQKPGQPPQLLIYAGSNVESGVPARFSGSGSGTEFSLNIHPVEEDDIGMYFCQQSRKVPWTFGGGTKLEIK")
0.063
>>> measurement("CL069439 antibody (antibody, V domains shown, Mouse monoclonal antibody from hybridoma, purified from ascites with Protein A/G; also called #16; No. 16) VH: EVQLQQSGTELVRTGASVKISCKASGYSFTGYYIHWIKQSHGESLEWIGYISCFNGDTSYNQNFKDRATFNVDTSSSTAYMQFISLTSEDSAVYYCVRGRYGNFNYFDYWGQGTTLTVSS VL: DIVLTQSPASLAVSLGQRATISCRASESVEFYGTSLMQWFQQKPGHPPQLLIYATSNVDSGVPARFSASGSGTDFSLNIHPVEEADIAMYFCQQSRRIPWTFGGGTKLEIK")
0.255

We now examine a further binder.
Input: Write down OD450 measured for item CL069707 antibody (antibody, V domains shown, Mouse monoclonal antibody from hybridoma, purified from ascites with Protein A/G; also called #23; No. 23) VH: EVHLVESGGGLVQPKGSLKLSCVASGFTFTTYAMNWVRQAPGKGLEWVARIRIKNNNYATYYADSVTDRFTISRDDSQSMLYLQMNNLKTEDTAMYYCVRPDYGNYGLAYWGQGTLVTVSA VL: EIVLTQSPTTMAASPGEKITITCSASSSISSHYLHWYQQKPGFSPKLLIYRSFYLASGVPLRFTGSGSGTSYSLTIGTMEAEDVATYYCQQDIVPLTFGAGTKLELK
Output: 0.165
